experimentalTarget: Glucocorticoid receptor (Homo sapiens) (UniProt P04150)
Sequence (P04150 whole entry): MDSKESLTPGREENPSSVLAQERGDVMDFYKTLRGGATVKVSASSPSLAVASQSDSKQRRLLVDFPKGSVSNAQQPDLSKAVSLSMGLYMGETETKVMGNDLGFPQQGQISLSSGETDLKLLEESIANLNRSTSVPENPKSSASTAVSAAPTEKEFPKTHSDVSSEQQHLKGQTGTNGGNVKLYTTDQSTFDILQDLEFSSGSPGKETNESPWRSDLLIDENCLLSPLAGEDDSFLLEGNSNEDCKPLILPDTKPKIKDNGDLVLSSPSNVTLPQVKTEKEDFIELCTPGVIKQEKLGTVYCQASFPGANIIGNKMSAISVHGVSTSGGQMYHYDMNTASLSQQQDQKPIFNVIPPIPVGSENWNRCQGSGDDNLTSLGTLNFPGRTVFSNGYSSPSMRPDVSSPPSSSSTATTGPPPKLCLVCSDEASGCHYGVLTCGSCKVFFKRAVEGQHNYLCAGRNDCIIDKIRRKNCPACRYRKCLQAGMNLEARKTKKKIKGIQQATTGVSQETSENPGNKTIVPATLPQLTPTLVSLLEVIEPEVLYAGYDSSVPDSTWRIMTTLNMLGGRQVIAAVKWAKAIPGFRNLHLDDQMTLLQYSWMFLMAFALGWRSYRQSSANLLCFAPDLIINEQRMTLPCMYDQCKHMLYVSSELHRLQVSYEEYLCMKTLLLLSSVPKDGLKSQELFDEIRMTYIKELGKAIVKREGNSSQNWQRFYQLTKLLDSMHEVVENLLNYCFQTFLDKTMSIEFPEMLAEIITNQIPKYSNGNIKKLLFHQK
experimentDescription: Relative binding affinity against glucocorticoid receptor
assayMetric: Relative binding affinity

Value of measured Relative binding affinity for the entry CC(=O)[C@@]1(C)CCC2C3CCC4=CC(=O)CCC4=C3CCC21C (stereo partly specified) : 4.5

Value of measured Relative binding affinity for the entry C#C[C@]1(O)CC[C@H]2[C@@H]3CCC4=CC(=O)CCC4=C3C=C[C@@]21C : 11

Value of measured Relative binding affinity for the entry CC(=O)[C@@]1(C)CCC2C3CCC4=CC(=O)CCC4=C3C=CC21C (stereo partly specified) : 2.4

Value of measured Relative binding affinity for the entry CC12C=CC3=C4CCC(=O)C=C4CCC3C1CCC2 (stereo unspecified) : 0.5

Value of measured Relative binding affinity for the entry C[C@@H]1CC2=CC(=O)CCC2=C2C=CC3(C)C(CC[C@]3(C)O)C21 (stereo partly specified) : 22

Value of measured Relative binding affinity for the entry CCCC12CCC3C4CCC(=O)C=C4CCC3C1CC[C@@H]2O (stereo partly specified) : 2.1

Value of measured Relative binding affinity for the entry CCCC12C=CC3=C4CCC(=O)C=C4CCC3C1CC[C@@H]2O (stereo partly specified) : 6

Value of measured Relative binding affinity for the entry C#C[C@]1(O)CCC2C3CCC4=CC(=O)CCC4=C3CCC21CC (stereo partly specified) : 17

Value of measured Relative binding affinity for the entry CC12C=CC3=C4CCC(=O)C=C4CCC3C1CC[C@@]21CCC(=O)O1 (stereo partly specified) : 62

Value of measured Relative binding affinity for the entry CC12C=CC3=C4CC(=O)CC=C4CCC3C1CC[C@]2(C)O (stereo partly specified) : 68

Value of measured Relative binding affinity for the entry C[C@@H]1CC2=CC(=O)CCC2=C2CCC3(C)C(CC[C@]3(C)O)C21 (stereo partly specified) : 6.1
